Hey, just so you know, these numbers are from ChEMBL document CHEMBL1275453.

Recorded MIC50 by entry
# System: Phocaeicola vulgatus
# method: Antibacterial activity against Bacteroides vulgatus isolate by agar dilution method
# Assay type: functional
// units = µg/mL; emit number, no label

Solved cases (3 shown):
compound	assayEndpoint	unitDescriptor	quantitativeReadout
O=C(N[C@H](CO)[C@H](O)c1ccc([N+](=O)[O-])cc1)C(Cl)Cl	MIC50	µg/mL	4
C[C@@H](O)[C@H]1C(=O)N2C(C(=O)O)=C(SCCNC=N)C[C@H]12 [IMIPENEM ANHYDROUS]	MIC50	µg/mL	0.5
CO[C@@]1(NC(=O)Cc2cccs2)C(=O)N2C(C(=O)O)=C(COC(N)=O)CS[C@@H]21	MIC50	µg/mL	16

Give a short answer stating reported MIC50 for Cc1ncc([N+](=O)[O-])n1CCO .
1
